Provenance of the data: patent US20220025023A1

- assayed-target: T1, TP-24 peptide (human, also: biotinylated, site not given here)
- T1 construct: 15-mer of human TDP-43 from the library spanning aa 199-285; captured on streptavidin plates
- T1 peptide: REFFSQYGDVMDVFI
- run-description: indirect ELISA, biotinylated 15-mer peptide on streptavidin plate, hybridoma supernatant
- Description: Serum-free supernatants were harvested from stable hybridomas. The supernatants containing antibodies of interest were then screened by an indirect ELISA assay to determine epitopes. Epitopes were mapped using a library of TDP-43 15-mer peptides. […] After the final wash, plates were incubated with pNPP (Sigma-Aldrich, Switzerland) an AP substrate solution, and read at 405 nm using an ELISA plate reader (Tecan).
Where no end group is shown, it is not given here.

binder	OD
ACI-7062-406E3-Ab2 (antibody, IgG2a, V domains shown, also called 406E3G10; clone 6) VH: QVTLKESGPAILQPSQTLSLTCSFSGFSLTTYGIGVGWIRQPSGKGLEWLAHIWWNDNKYYNTALKSRLTVSKDTSNNQVFLKIASVDTADTATYYCARVYGNLYYFAYWGQGTTLTVSS VL: DVLMTQTPLSLPVSLGDRASISCRSSQSIVHRSGNTYLEWYLQKPGQSPKLLIYKVSNRFSGVPDRFSGSGSGTDFTLKISRVEAEDLGVYYCFQGSHVPTFGAGTKLELKR	3.4 O.D. (405 nm)
ACI-7062-415C4-Ab1 (antibody, IgG1, V domains shown, also called 415C4C6; clone 14) VH: QVTLKESGPGILQPSQTLSLTCSFSGFSLSTYGIGVGWIRQPSGKGLEWLAHIWWNDNKYYKTALKSRLTISKDTSNNQVFLKIASVDTADSATYYCARVYGNLYYFGYWGQGTTLTVSS VL: DVLMTQTPLSLPVSLGDQASISCRSSQSIVHSTGNTYLEWYLQKPGQSPKLLIYKVSNRFSGVPDRFSGSGSGTDFTLKISRVEAEDLGVYYCFQGSRVPTFGAGTKLELKR	3.8 O.D. (405 nm)
ACI-7062-406E3-Ab1 (antibody, IgG2a, V domains shown, also called 406E3D5; clone 5) VH: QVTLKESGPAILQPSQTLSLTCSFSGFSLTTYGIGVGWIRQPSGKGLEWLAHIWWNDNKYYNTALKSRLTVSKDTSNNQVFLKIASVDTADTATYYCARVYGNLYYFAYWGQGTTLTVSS VL: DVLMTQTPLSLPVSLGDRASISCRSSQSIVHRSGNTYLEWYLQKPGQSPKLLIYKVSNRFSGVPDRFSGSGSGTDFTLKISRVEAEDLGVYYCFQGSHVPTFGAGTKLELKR	3 O.D. (405 nm)
ACI-7062-404D6-Ab2 (antibody, IgG3, V domains shown, also called 404D6E11; clone 4) VH: QVTLKESGPGILQPSQTLSLTCSFSGFSLSTYGIGVGWIRQPSGKGLEWLAHIWWNDYKYYNTALKSRLTISKDTSNNRVFLKIASVDTADTATYYCARVYGNLYYFDYWGQGTTLTVSS VL: DVLMTQTPLSLPVSLGDQASISCRSSQSIVHGSGNTYLEWYLQKPGQSPKLLIYKVSNRFSGVPDRFSGSGSGTDFTLRISRVEAEDLGVYYCFQGSHVPTFGAGTKLELKR	4 O.D. (405 nm)
ACI-7062-410H3-Ab1 (antibody, IgG1, V domains shown, also called 410H3B9; clone 7) VH: DVQLVESGGGLVQPGGSRRLSCAASGFTFSSFGMHWVRQAPEKGLEWVAYIRSGSDIIYYADSVKGRFTISRDNPENTLFLQMTSLRSEDTAMYYCARSGTTVPFDYWGQGTSLTVSS VL: DIVMTQSPSSLAMSVGQKVTMSCKSSQSLLNSGNQKNYLAWYQQKPGQSPELLLYFASTRASGVPDRFIGSGSGTDFTLTISSVQAEDLADYFCQQHYSIPLTFGAGTKLELKR	3.8 O.D. (405 nm)
